Measured values drawn from the supplement of paper PMC7858590 for this set.

test system: human monocyte-derived macrophages (M0); experiment: cell shape (eccentricity) Z-score vs DMSO control; higher = more elongated, M2-like morphology; conditions: 20 µM; 24 h; macrophage state: M0 (M-CSF)
Whole data set: some 3,800 compounds, median “cell shape (eccentricity) Z-score vs DMSO control” near 1.1, cut for the lowest 2% near -4.7. For the sample, the lowest values were picked, then their nearest neighbours and some compounds at random.
metric: cell shape (Z-score)
// return just the number, without any unit appended

Q: Would you mind telling me what cell shape (Z-score) value was observed for CC(C)=CCC1Cc2c(cc(O)c(C(=O)C(C)C)c2O)OC1(C)C (stereo unspecified) ?
A: 3.41

Q: Data request, read-out cell shape (Z-score), for "O=C(O)Cc1nn(Cc2ccc(Br)cc2F)c(=O)c2ccccc12"
A: -4.79

Q: Please look up its cell shape (Z-score): "COC1=CC(=O)O[C@@H](/C=C/c2ccccc2)[C@@H]1O"
A: -1.25

Q: What measured cell shape (Z-score) goes with "C[C@@](Cc1ccc(O)c(O)c1)(NN)C(=O)O" ?
A: 1.55

Q: cell shape (Z-score) for "COC(=O)C1=C(C)NC(C)=C(C(=O)OCCCN2CCC(c3ccccc3)(c3ccccc3)CC2)[C@H]1c1cccc([N+](=O)[O-])c1" ?
A: 1.82

Q: Suppose we examine the compound "COc1nc(N)nc2c1ncn2[C@@H]1O[C@H](CO)[C@@H](O)[C@@H]1O" ; what cell shape (Z-score) value has been reported?
A: 0.62
